test system: MDA-MB-231; test: Antiproliferative activity against human MDA-MB-231 cells expressing p53 R280K mutant assessed as inhibition of cell growth incubated for 24 hrs by WST-1 assay; type: functional, cell-based; settings: MDA-MB-231, 24 h
pIC50 values by entry
Friendly reminder that pIC50 comes from taking -log10 of the concentration in mol/L.

Known results for compounds:
*Q* So what does the record say about pIC50 for S=C=NCCCC12CC3CC(CC(C3)C1)C2 ?
*A* 4.92

*Q* So what does the record say about pIC50 for S=C=NCC12CC3CC(CC(C3)C1)C2 ?
*A* 4.62

*Q* So what does the record say about pIC50 for S=C=NCCC12CC3CC(CC(C3)C1)C2 ?
*A* 4.62

Next:
*Q* So what does the record say about pIC50 for [Se]=C=NCCC12CC3CC(CC(C3)C1)C2 ?
*A* 5.22

====

system: MDA-MB-231; assay: Downregulation of p53 R280K mutant expression in human MDA-MB-231 cells at 6 to 12 uM measured after 24 hrs by immunoblot analysis; settings: dose 6-12 µM
The source made the active and inactive calls. The rule behind the calls is not given here.
Give your call using only these classes: active, inactive

*Q* For O=C1CNC(=S)N1CCC12CC3CC(CC(C3)C1)C2 , what call appears in the results of this test?
*A* inactive

*Q* For S=C=NCCc1ccccc1 , what call appears in the results of this test?
*A* active

*Q* For S=C=NCC12CC3CC(CC(C3)C1)C2 , what call appears in the results of this test?
*A* active

*Q* For S=C=NCCC12CC3CC(CC(C3)C1)C2 , what call appears in the results of this test?
*A* active

*Q* For S=C=NCCCC12CC3CC(CC(C3)C1)C2 , what call appears in the results of this test?
*A* active

*Q* For S=C=NC12CC3CC(CC(C3)C1)C2 , what call appears in the results of this test?
*A* inactive

*Q* For [Se]=C=NCCC12CC3CC(CC(C3)C1)C2 , what call appears in the results of this test?
*A* active

====

experiment: Octanol-water partition coefficient, logP of the compound by HPLC-MS analysis; assay type: physicochemical; conditions: 18 h
logP values by entry
Please state the value as a number alone, without comment.

*Q* So what does the record say about logP for O=C(CC12CC3CC(CC(C3)C1)C2)N=C=S ?
*A* 3.73

*Q* So what does the record say about logP for S=C=Nc1ccc(C23CC4CC(CC(C4)C2)C3)cc1 ?
*A* 6.34

*Q* So what does the record say about logP for CCCC(CN=C=S)C1C2CC3CC(C2)CC1C3 (centres undefined) ?
*A* 6.77

Okay, next one:
*Q* So what does the record say about logP for [Se]=C=NCCC12CC3CC(CC(C3)C1)C2 ?
*A* 4.05
